test system: solid tumor cell lines; experiment: 3-day proliferation assay (CellTiter-Glo); type: cell-based, human; conditions: Homo sapiens, SH4, Skin
valueType: IC50 (µM)

1. Cn1ncc(Cl)c1-c1cc(C(=O)N[C@H](CN)Cc2ccc(F)c(F)c2)oc1Cl    5.53

---

test system: solid tumor cell lines; assay: 3-day proliferation assay (CellTiter-Glo); format: cell-based, human; details: Homo sapiens, SW756, SW756, Cervix
valueType: IC50 (µM)

1) Cn1ncc(Cl)c1-c1cc(C(=O)N[C@H](CN)Cc2cccc(F)c2)sc1Cl    10.4
2) Cn1ncc(Cl)c1-c1cc(C(=O)N[C@H](CN)Cc2ccc(F)c(F)c2)oc1Cl    8.29

---

tested on: hematological tumor cell lines; assay: 3-day proliferation assay (CellTiter-Glo); assay type: cell-based, human; settings: Homo sapiens, HL-60, HL-60 cell line; AML; Myeloblast
pIC50: −log10 of the molar value.
valueType: pIC50

1. Cn1ncc(Cl)c1-c1cc(C(=O)N[C@H](CN)Cc2cccc(F)c2)sc1Cl [GSK2110183]    5.59
2. Cn1ncc(Cl)c1-c1cc(C(=O)N[C@H](CN)Cc2ccc(F)c(F)c2)oc1Cl [GSK2141795]    5.43

---

test system: hematological tumor cell lines; experiment: 3-day proliferation assay (CellTiter-Glo); format: cell-based, human; conditions: Homo sapiens, SU-DHL10, SU-DHL-10 cell line; Non-Hodgkin's Lymphoma; B Cell
pIC50: −log10 of the molar value.
valueType: pIC50

1. Cn1ncc(Cl)c1-c1cc(C(=O)N[C@H](CN)Cc2ccc(F)c(F)c2)oc1Cl [GSK2141795]    7.14
2. Cn1ncc(Cl)c1-c1cc(C(=O)N[C@H](CN)Cc2cccc(F)c2)sc1Cl [GSK2110183]    6.76

---

system: hematological tumor cell lines; test: 3-day proliferation assay (CellTiter-Glo); assay type: cell-based, human; conditions: Homo sapiens, RCK8, RC-K8 cell line; Non-Hodgkin's Lymphoma (Histiocytic); B Cell
pIC50: −log10 of the molar value.
pIC50 overview
valueType: pIC50

1) Cn1ncc(Cl)c1-c1cc(C(=O)N[C@H](CN)Cc2cccc(F)c2)sc1Cl [GSK2110183]    5.27
2) Cn1ncc(Cl)c1-c1cc(C(=O)N[C@H](CN)Cc2ccc(F)c(F)c2)oc1Cl [GSK2141795]    5.76

---

System: hematological tumor cell lines
Assay: 3-day proliferation assay (CellTiter-Glo)
Assay type: cell-based, human
Details: Homo sapiens, CRO-AP5, CRO-AP5 cell line; Primary Effusion Lymphoma (PEL); B Cell
Procedure: Various tumor cell lines were obtained from different sources including; the American Type Cell Culture Collection, the Developmental Therapeutics Program, the National Cancer Institute, the German Resource Center for Biological Material and the European Collection of Animal Cell Cultures. […] Cell growth was determined relative to untreated (DMSO) controls. EC50's were calculated from inhibition curves using a 4- or 6-parameter fitting algorithm in the Assay Client application.
valueType: IC50

1. Cn1ncc(Cl)c1-c1cc(C(=O)N[C@H](CN)Cc2ccc(F)c(F)c2)oc1Cl [GSK2141795]    34 nM
2. Cn1ncc(Cl)c1-c1cc(C(=O)N[C@H](CN)Cc2cccc(F)c2)sc1Cl [GSK2110183]    67 nM

---

system: solid tumor cell lines; test: 3-day proliferation assay (CellTiter-Glo); type: cell-based, human; details: Homo sapiens, NCI-H146, NCIH146, Lung
pIC50: −log10 of the molar value.
pIC50 overview
valueType: pIC50

1) Cn1ncc(Cl)c1-c1cc(C(=O)N[C@H](CN)Cc2ccc(F)c(F)c2)oc1Cl    5.11
2) Cn1ncc(Cl)c1-c1cc(C(=O)N[C@H](CN)Cc2cccc(F)c2)sc1Cl    4.95

---

pIC50 overview
Test system: hematological tumor cell lines
Assay: 3-day proliferation assay (CellTiter-Glo)
Format: cell-based, human
Details: Homo sapiens, ML-2, ML-2 cell line; AML; Myelomonocytic
Method: Various tumor cell lines were obtained from different sources including; the American Type Cell Culture Collection, the Developmental Therapeutics Program, the National Cancer Institute, the German Resource Center for Biological Material and the European Collection of Animal Cell Cultures. […] Cell growth was determined relative to untreated (DMSO) controls. EC50's were calculated from inhibition curves using a 4- or 6-parameter fitting algorithm in the Assay Client application.
pIC50: −log10 of the molar value.
valueType: pIC50

1) Cn1ncc(Cl)c1-c1cc(C(=O)N[C@H](CN)Cc2ccc(F)c(F)c2)oc1Cl [GSK2141795]    6.40
2) Cn1ncc(Cl)c1-c1cc(C(=O)N[C@H](CN)Cc2cccc(F)c2)sc1Cl [GSK2110183]    6.01

---

system: solid tumor cell lines; assay: 3-day proliferation assay (CellTiter-Glo); type: cell-based, human; details: Homo sapiens, Capan-2, Capan2, Pancreas
IC50 overview
valueType: IC50

1. Cn1ncc(Cl)c1-c1cc(C(=O)N[C@H](CN)Cc2ccc(F)c(F)c2)oc1Cl    4.23 µM
2. Cn1ncc(Cl)c1-c1cc(C(=O)N[C@H](CN)Cc2cccc(F)c2)sc1Cl    9.38 µM

---

IC50 overview
system: solid tumor cell lines; experiment: 3-day proliferation assay (CellTiter-Glo); assay type: cell-based, human; conditions: Homo sapiens, SW872, SW872, Sarcoma
valueType: IC50

1. Cn1ncc(Cl)c1-c1cc(C(=O)N[C@H](CN)Cc2ccc(F)c(F)c2)oc1Cl    0.289 µM
2. Cn1ncc(Cl)c1-c1cc(C(=O)N[C@H](CN)Cc2cccc(F)c2)sc1Cl    0.919 µM

---

System: hematological tumor cell lines
Assay: 3-day proliferation assay (CellTiter-Glo)
Type: cell-based, human
Conditions: Homo sapiens, SKO-007, SKO-007 cell line; Multiple Myeloma; B Cell
Method: Various tumor cell lines were obtained from different sources including; the American Type Cell Culture Collection, the Developmental Therapeutics Program, the National Cancer Institute, the German Resource Center for Biological Material and the European Collection of Animal Cell Cultures. […] Cell growth was determined relative to untreated (DMSO) controls. EC50's were calculated from inhibition curves using a 4- or 6-parameter fitting algorithm in the Assay Client application.
pIC50: −log10 of the molar value.
valueType: pIC50

1) Cn1ncc(Cl)c1-c1cc(C(=O)N[C@H](CN)Cc2ccc(F)c(F)c2)oc1Cl    5.31
2) Cn1ncc(Cl)c1-c1cc(C(=O)N[C@H](CN)Cc2cccc(F)c2)sc1Cl    5.17

---

system: hematological tumor cell lines; test: 3-day proliferation assay (CellTiter-Glo); assay type: cell-based, human; settings: Homo sapiens, HD-MY-Z cell line; Hodgkin's Lymphoma; Unspecified
pIC50: −log10 of the molar value.
valueType: pIC50

1) Cn1ncc(Cl)c1-c1cc(C(=O)N[C@H](CN)Cc2ccc(F)c(F)c2)oc1Cl [GSK2141795]    5.08
2) Cn1ncc(Cl)c1-c1cc(C(=O)N[C@H](CN)Cc2cccc(F)c2)sc1Cl [GSK2110183]    5.04

---

pIC50 overview
Test system: solid tumor cell lines
Assay: 3-day proliferation assay (CellTiter-Glo)
Format: cell-based, human
Details: Homo sapiens, G-401, G401, Head & Neck
Procedure: Various tumor cell lines were obtained from different sources including; the American Type Cell Culture Collection, the Developmental Therapeutics Program, the National Cancer Institute, the German Resource Center for Biological Material and the European Collection of Animal Cell Cultures. […] Cell growth was determined relative to untreated (DMSO) controls. EC50's were calculated from inhibition curves using a 4- or 6-parameter fitting algorithm in the Assay Client application.
pIC50: −log10 of the molar value.
valueType: pIC50

1. Cn1ncc(Cl)c1-c1cc(C(=O)N[C@H](CN)Cc2ccc(F)c(F)c2)oc1Cl [GSK2141795]    6.33
2. Cn1ncc(Cl)c1-c1cc(C(=O)N[C@H](CN)Cc2cccc(F)c2)sc1Cl [GSK2110183]    5.95

---

test system: solid tumor cell lines; test: 3-day proliferation assay (CellTiter-Glo); format: cell-based, human; details: Homo sapiens, NCI-H446, NCIH446, Lung
pIC50: −log10 of the molar value.
pIC50 overview
valueType: pIC50

1. Cn1ncc(Cl)c1-c1cc(C(=O)N[C@H](CN)Cc2cccc(F)c2)sc1Cl [GSK2110183]    5.94
2. Cn1ncc(Cl)c1-c1cc(C(=O)N[C@H](CN)Cc2ccc(F)c(F)c2)oc1Cl [GSK2141795]    6.59

---

target: UniProt:Q04759; test: Kinase IC50 assay; assay type: biochemical
Sequence (Q04759 whole entry): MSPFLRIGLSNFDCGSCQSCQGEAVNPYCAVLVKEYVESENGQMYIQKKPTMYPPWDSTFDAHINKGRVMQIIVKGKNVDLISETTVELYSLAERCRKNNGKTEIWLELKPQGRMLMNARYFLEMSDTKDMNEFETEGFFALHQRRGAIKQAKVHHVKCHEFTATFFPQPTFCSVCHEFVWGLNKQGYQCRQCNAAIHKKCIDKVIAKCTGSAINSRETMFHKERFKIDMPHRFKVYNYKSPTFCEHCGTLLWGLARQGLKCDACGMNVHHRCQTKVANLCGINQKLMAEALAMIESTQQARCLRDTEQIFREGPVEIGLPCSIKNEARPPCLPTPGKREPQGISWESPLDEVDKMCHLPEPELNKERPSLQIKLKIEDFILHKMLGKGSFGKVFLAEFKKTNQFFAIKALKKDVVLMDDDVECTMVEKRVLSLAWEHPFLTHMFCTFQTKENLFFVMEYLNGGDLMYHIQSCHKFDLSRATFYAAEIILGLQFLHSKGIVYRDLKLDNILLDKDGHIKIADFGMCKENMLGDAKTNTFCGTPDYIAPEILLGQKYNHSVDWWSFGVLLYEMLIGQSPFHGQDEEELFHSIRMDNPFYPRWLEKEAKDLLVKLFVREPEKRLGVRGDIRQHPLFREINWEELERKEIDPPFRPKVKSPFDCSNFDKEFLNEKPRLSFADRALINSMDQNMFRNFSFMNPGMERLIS
valueType: IC50 (nM)

1) Cn1ncc(Cl)c1-c1cc(C(=O)N[C@H](CN)Cc2ccc(F)c(F)c2)oc1Cl    64
2) Cn1ncc(Cl)c1-c1cc(C(=O)N[C@H](CN)Cc2cccc(F)c2)sc1Cl    510

---

test system: solid tumor cell lines; assay: 3-day proliferation assay (CellTiter-Glo); assay type: cell-based, human; settings: Homo sapiens, CAL-27, CAL27, Head & Neck
pIC50: −log10 of the molar value.
pIC50 overview
valueType: pIC50

1. Cn1ncc(Cl)c1-c1cc(C(=O)N[C@H](CN)Cc2cccc(F)c2)sc1Cl    5.10
2. Cn1ncc(Cl)c1-c1cc(C(=O)N[C@H](CN)Cc2ccc(F)c(F)c2)oc1Cl    5.18
